These entries and their values trace back to patent US20220160747A1.

# Target desc: human CD73 recombinant protein (Homo sapiens, UniProt P21589)
# Construct: made in house
# Sequence (P21589 27-549): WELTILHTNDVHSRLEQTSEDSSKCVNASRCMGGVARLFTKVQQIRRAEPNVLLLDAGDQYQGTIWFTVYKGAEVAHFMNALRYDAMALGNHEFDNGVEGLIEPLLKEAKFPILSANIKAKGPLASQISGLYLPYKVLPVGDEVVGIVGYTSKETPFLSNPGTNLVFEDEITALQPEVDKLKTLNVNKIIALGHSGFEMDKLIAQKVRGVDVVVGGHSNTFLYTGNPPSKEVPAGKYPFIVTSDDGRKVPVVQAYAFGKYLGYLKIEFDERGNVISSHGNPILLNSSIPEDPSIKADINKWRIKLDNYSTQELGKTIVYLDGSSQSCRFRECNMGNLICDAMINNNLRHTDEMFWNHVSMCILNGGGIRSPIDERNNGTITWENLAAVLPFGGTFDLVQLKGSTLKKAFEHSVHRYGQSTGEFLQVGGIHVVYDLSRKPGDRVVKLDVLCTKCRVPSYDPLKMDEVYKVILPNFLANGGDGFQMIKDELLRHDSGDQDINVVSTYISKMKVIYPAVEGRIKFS
# Assay remarks: Enzyme assay, CD73 (Malachite green kit)
# Type: biochemical
# Experimental parameters: AMP added, incubation 30 minutes
Test readout: IC50

Request: For the molecule CN(Cc1cccc(F)c1)c1ncnc2c1ncn2[C@@H]1O[C@H](COC(c2ccccc2)(c2ccccc2)c2ccccc2)[C@@H](O)[C@H]1O [Compound 24] , report IC50.
Response: < 1 µM

Request: For the molecule CN(Cc1cccc(F)c1)c1ncnc2c1ncn2[C@@H]1O[C@H](COC(=S)Nc2ccccc2)[C@@H](O)[C@H]1O [Compound 7] , report IC50.
Response: 1.1 to 5 µM

Request: For the molecule CN(Cc1cccc(F)c1)c1ncnc2c1ncn2[C@@H]1O[C@H](COCc2cc(C(F)(F)F)cc(C(F)(F)F)c2)[C@@H](O)[C@H]1O [Compound 14] , report IC50.
Response: < 1 µM

Request: For the molecule CN(Cc1cccc(F)c1)c1ncnc2c1ncn2[C@@H]1O[C@H](COC(=O)c2ccccc2)[C@@H](O)[C@H]1O [Compound 9] , report IC50.
Response: 5.1 to 15 µM

Request: For the molecule CN(Cc1cccc(F)c1)c1ncnc2c1ncn2[C@@H]1O[C@H](COC(=O)Nc2ccccc2)[C@@H](O)[C@H]1O [Compound 6] , report IC50.
Response: 5.1 to 15 µM

Request: For the molecule CN(Cc1cccc(F)c1)c1ncnc2c1ncn2[C@@H]1O[C@H](COCc2ccc(-c3ccccc3)cc2)[C@@H](O)[C@H]1O [Compound 13] , report IC50.
Response: < 1 µM

====

# Target desc: human CD39 recombinant protein (Homo sapiens)
# Construct: made in house
# Sequence (P49961 whole entry): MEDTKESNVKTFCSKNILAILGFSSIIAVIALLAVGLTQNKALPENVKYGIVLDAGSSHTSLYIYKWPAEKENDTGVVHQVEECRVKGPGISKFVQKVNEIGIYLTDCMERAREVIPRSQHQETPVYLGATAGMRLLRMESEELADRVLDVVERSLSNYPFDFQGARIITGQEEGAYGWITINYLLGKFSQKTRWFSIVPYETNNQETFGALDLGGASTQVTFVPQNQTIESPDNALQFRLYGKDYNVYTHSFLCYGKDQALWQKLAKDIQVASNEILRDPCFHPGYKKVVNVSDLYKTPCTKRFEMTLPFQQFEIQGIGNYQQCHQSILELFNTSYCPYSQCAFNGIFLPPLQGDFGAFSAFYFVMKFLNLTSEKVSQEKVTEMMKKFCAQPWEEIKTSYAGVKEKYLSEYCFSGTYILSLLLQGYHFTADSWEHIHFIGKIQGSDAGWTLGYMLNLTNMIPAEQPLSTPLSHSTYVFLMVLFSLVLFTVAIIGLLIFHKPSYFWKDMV
# Assay remarks: Enzyme assay, CD39 (Malachite green kit)
# Type: biochemical
# Experimental parameters: AMP added, incubation 30 minutes
# Description: Referring to a method described in a reference document [Front Pharmacol. 2018 Mar. 1; 9:153], an enzyme assay was performed. Each of human CD73 and CD39 recombinant proteins was produced and then purified and isolated, and used in an enzyme assay. […]
Test readout: IC50

Request: For the compound `CN(Cc1cccc(F)c1)c1ncnc2c1ncn2[C@@H]1O[C@H](COCc2ccc3ccccc3c2)[C@@H](O)[C@H]1O` , report IC50.
Response: 15.1 to 30 µM

Request: For the compound `CN(Cc1cccc(F)c1)c1ncnc2c1ncn2[C@@H]1O[C@H](COCc2ccc(S(F)(F)(F)(F)F)cc2)[C@@H](O)[C@H]1O` , report IC50.
Response: 1.1 to 5 µM

Request: For the compound `CN(Cc1cccc(F)c1)c1ncnc2c1ncn2[C@@H]1O[C@H](COCc2ccc3ccccc3c2Br)[C@H]2OC(C)(C)O[C@H]21` , report IC50.
Response: 1.1 to 5 µM

Request: For the compound `CN(Cc1cccc(F)c1)c1ncnc2c1ncn2[C@@H]1O[C@H](CO[Si](c2ccccc2)(c2ccccc2)c2ccccc2)[C@@H](O)[C@H]1O` , report IC50.
Response: 1.1 to 5 µM

Request: For the compound `CN(Cc1cccc(F)c1)c1ncnc2c1ncn2[C@@H]1O[C@H](COCc2cc(C(F)(F)F)cc(C(F)(F)F)c2)[C@@H](O)[C@H]1O` , report IC50.
Response: 5.1 to 15 µM

Request: For the compound `CN(Cc1cccc(F)c1)c1ncnc2c1ncn2[C@@H]1O[C@H](CO[Si](C)(C)C(C)(C)C)[C@@H](O)[C@H]1O` , report IC50.
Response: 1.1 to 5 µM
